Examples of compounds with documented TGI follow.
Tested on: BT-549 breast
PROCEDURE TEXT: NCI tumour cell line growth inhibition, 48 h

[
  {
    "COMPOUND": "CC1=C(SCc2ccccc2)C(=O)c2ccccc2C1=O",
    "TGI": "32.1 µM"
  },
  {
    "COMPOUND": "Cc1nc2cncc(C#Cc3cncc(C(=O)Nc4ccc(CN5CCN(C)CC5)c(C(F)(F)F)c4)c3)c2nc1C",
    "TGI": "7.8 µM"
  },
  {
    "COMPOUND": "COc1ccc(Nc2ncccc2/C=C/C(=O)c2cc(OC)c(OC)c(OC)c2)cc1",
    "TGI": "3.08 µM"
  },
  {
    "COMPOUND": "CC(C)(C)n1c(=O)n(C(=O)C(Cl)(Cl)Cl)n(C(=O)C(Cl)(Cl)Cl)c1=O",
    "TGI": "> 100 µM"
  },
  {
    "COMPOUND": "COc1cc2c(c(OC)c1OC)-c1ccc(NNC(=S)N(Cc3cccc(C[N+](Cc4cccc(CNC56CC7CC(CC(C7)C5)C6)c4)(Cc4cccc(CNC56CC7CC(CC(C7)C5)C6)c4)Cc4cccc(CN(C(=S)NNc5ccc6c(cc5=O)[C@@H](NC(C)=O)CCc5cc(OC)c(OC)c(OC)c5-6)C56CC7CC(CC(C7)C5)C6)c4)c3)C34CC5CC(CC(C5)C3)C4)c(=O)cc1[C@@H](NC(C)=O)CC2 (stereo partly specified)",
    "TGI": "5.89 µM"
  },
  {
    "COMPOUND": "O=c1[nH]c2cc3cccnc3c(Cl)c2nc1C(F)(F)F",
    "TGI": "86.7 µM"
  },
  {
    "COMPOUND": "C[C@@H]1COCCN1c1nc(-c2cnc(N)cc2C(F)F)nc(N2[C@H](C)COC[C@@H]2C)n1",
    "TGI": "1.75 µM"
  },
  {
    "COMPOUND": "Cc1ccccc1S(=O)(=O)N1[C@H](c2ccc(Cl)cc2)C(C(=O)N[C@@H](Cc2ccccc2)C(N)=O)=C[C@@H]1C(C)(C)C",
    "TGI": "20.9 µM"
  },
  {
    "COMPOUND": "CC(=N\\O)/C(C)=N/O.CC(=N\\O)/C(C)=N/O.CC(=N\\O)/C(C)=N/O.CC(=N\\O)/C(C)=N/O.[Cu].[Cu]",
    "TGI": "33.4 µM"
  },
  {
    "COMPOUND": "CN(C)CCCNc1c2ccccc2nc2cccc([N+](=O)[O-])c12",
    "TGI": "0.0151 µM"
  },
  {
    "COMPOUND": "COc1cc2c(cc1OCCCOC1=C=C=C(c3ccc4c(c3)c3cc(-c5ccc(OCCCOc6cc7c(cc6OC)C(=O)N6CCC[C@H]6C=N7)cc5)ccc3n4S(=O)(=O)c3ccc(C)cc3)C=C1)N=C[C@@H]1CCCN1C2=O",
    "TGI": "4.59 µM"
  },
  {
    "COMPOUND": "CCOC(=O)c1c2c(n3ccc(NC(=O)OC(C)(C)C)cc13)C(=O)c1ncccc1C2=O",
    "TGI": "2.02 µM"
  },
  {
    "COMPOUND": "O=Nc1c(-c2cccc([N+](=O)[O-])c2)nc2cnccn12",
    "TGI": "> 100 µM"
  },
  {
    "COMPOUND": "CN(C)/C=C/c1nnnn1-c1ccc(Cl)cc1",
    "TGI": "38.7 µM"
  },
  {
    "COMPOUND": "O=C1CSC2=NCC3(NN12)c1ccccc1-c1ccccc13",
    "TGI": "> 10 µM"
  },
  {
    "COMPOUND": "O=c1[nH]cnc2c1nnn2C1OC(CO)C(O)C1O (stereo unspecified)",
    "TGI": "> 100 µM"
  }
]
